Biological target: human HER3 endogenously expressed on human cancer cells (SK-Br-3, BT-474, MCF7) (human, UniProt P21860 20-1342)
Assay: cell-based or functional assay
readout_kind: SK-Br-3 proliferation IC50 (nM)
Give just the number in nM; leave the unit off.

Worked examples, 4 binders total:
[
  {
    "binder": "MOR12515 (antibody, human IgG1, lambda, V domains shown, Tested as IgG) VH: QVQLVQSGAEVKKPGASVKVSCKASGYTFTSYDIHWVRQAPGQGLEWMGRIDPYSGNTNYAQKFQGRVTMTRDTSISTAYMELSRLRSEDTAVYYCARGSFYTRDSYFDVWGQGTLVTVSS VL: DIALTQPASVSGSPGQSITISCTGTSSDVGTYNQVSWYQQHPGKAPKLMIYGVSKRPSGVSNRFSGSKSGNTASLTISGLQAEDEADYYCYSRDSPMDQVFGGGTKLTVLG",
    "SK-Br-3 proliferation IC50 (nM)": 0.278
  },
  {
    "binder": "MOR13654 (antibody, human IgG1, lambda, V domains shown, Tested as IgG) VH: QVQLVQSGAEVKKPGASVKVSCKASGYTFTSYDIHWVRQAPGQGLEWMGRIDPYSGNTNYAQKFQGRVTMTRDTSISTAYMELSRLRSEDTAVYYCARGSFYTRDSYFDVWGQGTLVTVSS VL: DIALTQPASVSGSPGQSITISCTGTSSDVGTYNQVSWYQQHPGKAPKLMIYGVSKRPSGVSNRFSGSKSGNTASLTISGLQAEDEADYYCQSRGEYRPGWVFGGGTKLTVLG",
    "SK-Br-3 proliferation IC50 (nM)": 0.136
  },
  {
    "binder": "MOR12615 (antibody, human IgG1, lambda, V domains shown, Tested as IgG) VH: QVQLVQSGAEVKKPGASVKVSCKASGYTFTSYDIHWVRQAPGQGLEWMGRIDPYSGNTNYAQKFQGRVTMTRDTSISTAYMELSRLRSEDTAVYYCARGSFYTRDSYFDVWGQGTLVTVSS VL: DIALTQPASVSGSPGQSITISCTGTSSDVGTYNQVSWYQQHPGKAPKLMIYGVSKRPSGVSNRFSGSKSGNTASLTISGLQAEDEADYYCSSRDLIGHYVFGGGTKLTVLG",
    "SK-Br-3 proliferation IC50 (nM)": 0.121
  },
  {
    "binder": "MOR13655 (antibody, human IgG1, lambda, V domains shown, Tested as IgG) VH: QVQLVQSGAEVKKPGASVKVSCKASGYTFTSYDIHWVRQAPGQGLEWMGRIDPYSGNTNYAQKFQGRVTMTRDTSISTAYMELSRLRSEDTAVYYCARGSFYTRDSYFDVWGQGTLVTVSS VL: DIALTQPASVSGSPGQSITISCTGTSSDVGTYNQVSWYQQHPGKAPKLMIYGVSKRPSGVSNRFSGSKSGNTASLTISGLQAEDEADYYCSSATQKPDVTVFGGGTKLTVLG",
    "SK-Br-3 proliferation IC50 (nM)": 0.074
  }
]

Please find the next binder below.
Indicate its recorded SK-Br-3 proliferation IC50; the binder in question is MOR14533 (antibody, human IgG1, kappa, V domains shown, Tested as IgG) VH: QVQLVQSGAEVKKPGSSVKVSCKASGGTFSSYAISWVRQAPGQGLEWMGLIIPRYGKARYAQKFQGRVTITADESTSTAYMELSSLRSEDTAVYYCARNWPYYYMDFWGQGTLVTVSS VL: EIVLTQSPATLSLSPGERATLSCRASQNIVFNLAWYQQKPGQAPRLLIYDASNRATGIPARFSGSGSGTDFTLTISSLEPEDFAVYYCQQTKSKPSPTFGQGTKVEIKR
0.026
